viability at 30 µM overview
test system: MCF7; assay: Cytotoxicity against human MCF7 cells assessed as cell viability at 30 uM incubated for 48 hrs by MTS assay relative to control; assay type: functional; settings: read-out: Activity
recorded.endpoint: viability at 30 µM (%)

[[record]]
compound = "O=C(c1ccccc1)[C@@H]1[C@@H](c2ccc(Br)cc2)N=Cc2cccn21 (relative stereo)"
result_number = 99.9

[[record]]
compound = "O=C(C[N+]1=Cc2cccn2[C@H](C(=O)c2ccc(Br)cc2)[C@H]1c1ccccc1)c1ccc(Cl)cc1 (relative stereo)"
result_number = 82.5

[[record]]
compound = "O=C(c1ccc(F)cc1)[C@@H]1[C@@H](c2ccco2)N=Cc2cccn21 (relative stereo)"
result_number = 70

[[record]]
compound = "COc1cccc(C(=O)[C@@H]2[C@@H](c3ccncc3)N=Cc3cccn32)c1 (relative stereo)"
result_number = 95.5

[[record]]
compound = "O=C(c1ccc(Br)cc1)[C@@H]1[C@@H](c2ccccn2)N=Cc2cccn21 (relative stereo)"
result_number = 67.5

[[record]]
compound = "Cc1ccc([C@H]2N=Cc3cccn3[C@@H]2C(=O)c2ccccc2)cc1 (relative stereo)"
result_number = 108

[[record]]
compound = "O=C(c1ccccc1)[C@@H]1[C@@H](c2ccc(Cl)cc2)N=Cc2cccn21 (relative stereo)"
result_number = 102

[[record]]
compound = "O=C(c1ccc(Cl)cc1)[C@@H]1[C@@H](c2ccc[nH]2)N=Cc2cccn21 (relative stereo)"
result_number = 102


====

system: MCF7; assay: Cytotoxicity against human MCF7 cells assessed as cell viability at 30 uM incubated for 48 hrs by MTS assay relative to control; assay type: functional; details: read-out: Activity
recorded.endpoint: viability at 30 µM (%)

[[record]]
compound = "COc1ccc([C@@H]2[C@@H](C(=O)c3ccc(Br)cc3)n3cccc3C=[N+]2CC(=O)c2ccccc2)cc1 (relative stereo)"
result_number = 6.4

[[record]]
compound = "C[N+]1=Cc2cccn2[C@H](C(=O)c2ccc(Br)cc2)[C@H]1c1ccccc1 (relative stereo)"
result_number = 98.1

[[record]]
compound = "O=C(C[N+]1=Cc2cccn2[C@H](C(=O)c2ccc(Br)cc2)[C@H]1c1ccccc1)c1ccc(F)cc1 (relative stereo)"
result_number = 33.8

[[record]]
compound = "Cc1ccc([C@H]2N=Cc3cccn3[C@@H]2C(=O)c2ccc(Br)cc2)cc1 (relative stereo)"
result_number = 99.9

[[record]]
compound = "Cc1ccc([C@H]2N=Cc3cccn3[C@@H]2C(=O)c2ccc(F)cc2)cc1 (relative stereo)"
result_number = 111

[[record]]
compound = "O=C(c1ccc(Br)cc1)[C@@H]1[C@@H](c2ccco2)N=Cc2cccn21 (relative stereo)"
result_number = 96.5

[[record]]
compound = "CCOC(=O)C[N+]1=Cc2cccn2[C@H](C(=O)c2ccc(Br)cc2)[C@H]1c1ccccc1 (relative stereo)"
result_number = 24

[[record]]
compound = "COc1ccc(C(=O)[C@@H]2[C@@H](c3ccco3)N=Cc3cccn32)cc1 (relative stereo)"
result_number = 99.9

[[record]]
compound = "O=C(c1ccc(Br)cc1)[C@@H]1[C@@H](c2ccccc2)[N+](Cc2ccccc2)=Cc2cccn21 (relative stereo)"
result_number = 98.1

[[record]]
compound = "COc1ccc(C(=O)[C@@H]2[C@@H](c3ccc(OC)c(OC)c3)N=Cc3cccn32)cc1 (relative stereo)"
result_number = 98

[[record]]
compound = "O=C(c1ccccc1)[C@@H]1[C@@H](c2ccc([N+](=O)[O-])cc2)N=Cc2cccn21 (relative stereo)"
result_number = 85.1

[[record]]
compound = "O=C(c1ccccc1)[C@@H]1[C@@H](c2ccco2)N=Cc2cccn21 (relative stereo)"
result_number = 95.3

[[record]]
compound = "O=C(c1ccccc1)[C@@H]1[C@@H](c2ccccc2)N=Cc2cccn21 (relative stereo)"
result_number = 104

[[record]]
compound = "COc1ccc(C(=O)C[N+]2=Cc3cccn3[C@H](C(=O)c3ccc(Br)cc3)[C@H]2c2ccccc2)cc1 (relative stereo)"
result_number = 54.5

[[record]]
compound = "COc1ccc([C@H]2N=Cc3cccn3[C@@H]2C(=O)c2cccc(OC)c2)cc1 (relative stereo)"
result_number = 77.9

[[record]]
compound = "O=C(c1ccc(F)cc1)[C@@H]1[C@@H](c2ccccc2)N=Cc2cccn21 (relative stereo)"
result_number = 70.3

[[record]]
compound = "COc1ccc(C(=O)[C@@H]2[C@@H](c3ccc(C)cc3)N=Cc3cccn32)cc1 (relative stereo)"
result_number = 77.4

[[record]]
compound = "COc1cc(OC)cc([C@H]2N=Cc3cccn3[C@@H]2C(=O)c2ccccc2)c1 (relative stereo)"
result_number = 102

[[record]]
compound = "Cc1ccc([C@H]2N=Cc3cccn3[C@@H]2C(=O)c2ccc(Cl)cc2)cc1 (relative stereo)"
result_number = 100

[[record]]
compound = "COc1ccccc1[C@H]1N=Cc2cccn2[C@@H]1C(=O)c1ccc(F)cc1 (relative stereo)"
result_number = 69.3

[[record]]
compound = "COc1ccccc1[C@H]1N=Cc2cccn2[C@@H]1C(=O)c1ccccc1 (relative stereo)"
result_number = 107

[[record]]
compound = "O=C(c1ccc(F)cc1)[C@@H]1[C@@H](c2ccc(Br)cc2)N=Cc2cccn21 (relative stereo)"
result_number = 31.1

[[record]]
compound = "COc1ccc([C@H]2N=Cc3cccn3[C@@H]2C(=O)c2ccc(Br)cc2)cc1 (relative stereo)"
result_number = 39.8

[[record]]
compound = "O=C(C[N+]1=Cc2cccn2[C@H](C(=O)c2ccc(Br)cc2)[C@H]1c1ccccc1)c1ccccc1 (relative stereo)"
result_number = 25.5

[[record]]
compound = "COc1ccc(C(=O)[C@@H]2[C@@H](c3ccc(Br)cc3)N=Cc3cccn32)cc1 (relative stereo)"
result_number = 100

[[record]]
compound = "COc1cccc(C(=O)[C@@H]2[C@@H](c3ccc(Cl)cc3)N=Cc3cccn32)c1 (relative stereo)"
result_number = 118

[[record]]
compound = "COc1ccc([C@H]2N=Cc3cccn3[C@@H]2C(=O)c2ccc(F)cc2)cc1OC (relative stereo)"
result_number = 72.8

[[record]]
compound = "O=C(c1ccc(F)cc1)[C@@H]1[C@@H](c2ccncc2)N=Cc2cccn21 (relative stereo)"
result_number = 78.5

[[record]]
compound = "COc1ccccc1[C@H]1N=Cc2cccn2[C@@H]1C(=O)c1ccc(Cl)cc1 (relative stereo)"
result_number = 96.5

[[record]]
compound = "O=C(C[N+]1=Cc2cccn2[C@H](C(=O)c2ccc(F)cc2)[C@H]1c1ccc(Br)cc1)c1ccccc1 (relative stereo)"
result_number = 3.6

[[record]]
compound = "O=C(c1ccc(Br)cc1)c1c(-c2ccccc2)ncc2cccn12"
result_number = 37

[[record]]
compound = "O=C(c1ccc(Cl)cc1)[C@@H]1[C@@H](c2ccccc2)N=Cc2cccn21 (relative stereo)"
result_number = 99.3


====

Below, each entry is listed with its recorded IC50.
tested on: MCF7; assay: Cytotoxicity against human MCF7 cells assessed as reduction cell viability incubated for 48 hrs by MTS assay; format: functional, cell-based; conditions: MCF7, 48 h
recorded.endpoint: IC50

[[record]]
molecule = "O=C(C[N+]1=Cc2cccn2[C@H](C(=O)c2ccc(F)cc2)[C@H]1c1ccc(Br)cc1)c1ccccc1 (relative stereo)"
result = "1950 nM"

[[record]]
molecule = "COc1ccc([C@@H]2[C@@H](C(=O)c3ccc(Br)cc3)n3cccc3C=[N+]2CC(=O)c2ccccc2)cc1 (relative stereo)"
result = "2450 nM"

[[record]]
molecule = "O=C(C[N+]1=Cc2cccn2[C@H](C(=O)c2ccc(Br)cc2)[C@H]1c1ccccc1)c1ccccc1 (relative stereo)"
result = "3650 nM"


====

tested on: MCF7; assay: Cytotoxicity against human MCF7 cells assessed as cell viability at 30 uM incubated for 48 hrs by MTS assay relative to control; type: functional; settings: read-out: Activity
recorded.endpoint: viability at 30 µM (%)

[[record]]
compound = "O=C(c1ccccc1)[C@@H]1[C@@H](c2cc3ccccc3[nH]2)N=Cc2cccn21 (relative stereo)"
recorded_endpoint = "viability at 30 µM"
result_number = 106

[[record]]
compound = "O=C(c1ccc(Br)cc1)[C@@H]1[C@@H](c2ccccc2)N=Cc2cccn21 (relative stereo)"
recorded_endpoint = "viability at 30 µM"
result_number = 66.9

[[record]]
compound = "COc1cccc(C(=O)[C@@H]2[C@@H](c3ccccc3)N=Cc3cccn32)c1 (relative stereo)"
recorded_endpoint = "viability at 30 µM"
result_number = 104

